Value source: ChEMBL document CHEMBL1201862

Provide the recorded GI50 for the entries that follow.
- Test system: SN12C
- PROTOCOL NOTES: NCI tumour cell line growth inhibition, 48 h
Active and inactive are the calls of the source. Cut-off read from the data, not from the text of the source: active = GI50 up to about 1.1 µM and inactive = higher.

**Q:** Requested field: GI50. Item: Cc1nc2c(=S)[nH]ncc2[nH]1
**A:** > 100 µM (inactive)

**Q:** // returns reported GI50 for input Cc1ccc(-c2cn3c(nc4ccccc43)c(C)n2)cc1
**A:** 55.6 µM (inactive)

**Q:** Param item = Oc1ccc2ccccc2c1CN(Cc1c(O)ccc2ccccc12)C1CCCCC1 ; retrieve measured GI50.
**A:** 14.4 µM (inactive)

**Q:** # GI50 lookup, item COc1cc2ccc1OCc1cccc(n1)COc1ccc(cc1OC)/C=N\CCNCCNCC/N=C\2
**A:** > 100 µM (inactive)

**Q:** Need GI50, item CC(C)=CCC[C@@H](C)C1=C(O)C(=O)C(C)=C(Nc2ccccc2Br)C1=O
**A:** 12.5 µM (inactive)

**Q:** Could you tell me which GI50 is on file for CCCCCCCCCCCc1cc(=O)c2c(O)cccc2o1 ?
**A:** > 100 µM (inactive)
